Where do these numbers come from? They come from patent US12371428B2.

molecular target: Human KDR (residues 790-1356) (Homo sapiens (Human), UniProt P35968); assay: Human KDR kinase assay, HTRF KinEase (Example B-2); type: biochemical; conditions: protocol of Example B-2 (other compounds)
Sequence (P35968 790-1356): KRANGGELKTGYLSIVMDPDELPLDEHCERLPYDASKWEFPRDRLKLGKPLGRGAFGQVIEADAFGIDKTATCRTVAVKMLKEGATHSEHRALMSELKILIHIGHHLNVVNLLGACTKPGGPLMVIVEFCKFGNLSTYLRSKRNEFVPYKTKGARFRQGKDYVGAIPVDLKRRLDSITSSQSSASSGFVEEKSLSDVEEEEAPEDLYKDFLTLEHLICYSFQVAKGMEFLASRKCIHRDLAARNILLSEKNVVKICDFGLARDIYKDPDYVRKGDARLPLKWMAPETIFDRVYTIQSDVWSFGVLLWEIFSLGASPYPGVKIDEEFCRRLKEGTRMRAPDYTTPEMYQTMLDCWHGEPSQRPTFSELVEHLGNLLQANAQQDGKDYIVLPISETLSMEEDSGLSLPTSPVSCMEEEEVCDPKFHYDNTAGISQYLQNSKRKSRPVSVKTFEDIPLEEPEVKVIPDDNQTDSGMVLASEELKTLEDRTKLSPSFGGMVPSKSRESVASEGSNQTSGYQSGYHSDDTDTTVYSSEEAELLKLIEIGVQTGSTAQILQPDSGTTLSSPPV
pIC50: −log10 of the molar value.
Examples of compounds with documented pIC50 follow.

>  <mol>
CCOc1c(C(=O)Nc2ccc(Oc3ccnc4cc(OC)c(OC)nc34)c(F)c2)c(=O)c(-c2ccc(F)cc2)c(C)n1C

>  <system>
Human KDR (residues 790-1356) (Homo sapiens (Human), UniProt P35968)

>  <pIC50>
6.52 to 7.00

$$$$
>  <mol>
COc1cc2nccc(Oc3ccc(NC(=O)c4cn(C)c(OC)c(-c5ccc(F)cc5)c4=O)cc3F)c2nc1OC

>  <system>
Human KDR (residues 790-1356) (Homo sapiens (Human), UniProt P35968)

>  <pIC50>
> 7.00

$$$$
>  <mol>
COc1cc2nccc(Oc3ccc(NC(=O)c4cn(C)c(C)c(-c5ccc(F)cc5)c4=O)cc3)c2nc1OC

>  <system>
Human KDR (residues 790-1356) (Homo sapiens (Human), UniProt P35968)

>  <pIC50>
> 7.00

$$$$
>  <mol>
COc1cc2nccc(Oc3ccc(NC(=O)c4c(C)n(C)cc(-c5ccc(F)cc5)c4=O)cc3)c2nc1OC

>  <system>
Human KDR (residues 790-1356) (Homo sapiens (Human), UniProt P35968)

>  <pIC50>
< 6.52

$$$$
>  <mol>
COc1cc2nccc(Oc3ccc(NC(=O)c4cn(C)c(CO)c(-c5ccc(F)cc5C)c4=O)cc3F)c2nc1OC

>  <system>
Human KDR (residues 790-1356) (Homo sapiens (Human), UniProt P35968)

>  <pIC50>
< 6.52

$$$$
>  <mol>
COc1cc2nccc(Oc3ccc(NC(=O)c4cnc(C)c(-c5ccc(F)cc5C)c4O)cc3F)c2nc1OC

>  <system>
Human KDR (residues 790-1356) (Homo sapiens (Human), UniProt P35968)

>  <pIC50>
> 7.00

$$$$
>  <mol>
COc1nc2c(Oc3ccc(NC(=O)c4cncc(-c5ccc(F)cc5)c4O)cc3F)ccnc2cc1Br

>  <system>
Human KDR (residues 790-1356) (Homo sapiens (Human), UniProt P35968)

>  <pIC50>
> 7.00

$$$$
>  <mol>
COc1ccc2nccc(Oc3ccc(NC(=O)c4c(C)cc(C)n(-c5ccc(F)cc5)c4=O)cc3F)c2n1

>  <system>
Human KDR (residues 790-1356) (Homo sapiens (Human), UniProt P35968)

>  <pIC50>
> 7.00

$$$$
>  <mol>
COCCOc1nc2c(Oc3ccc(NC(=O)c4cnc(C)c(-c5ccc(F)cc5)c4O)cc3)ccnc2cc1C

>  <system>
Human KDR (residues 790-1356) (Homo sapiens (Human), UniProt P35968)

>  <pIC50>
> 7.00

$$$$
>  <mol>
COc1ccc2nccc(Oc3ccc(NC(=O)c4c(C)cc(C)n(-c5ccc(F)cc5C)c4=O)cc3F)c2n1

>  <system>
Human KDR (residues 790-1356) (Homo sapiens (Human), UniProt P35968)

>  <pIC50>
6.52 to 7.00

$$$$
>  <mol>
COc1cc2nccc(Oc3ccc(NC(=O)c4cn(-c5cnn(C(F)F)c5)cc(-c5ccc(F)cc5)c4=O)cc3F)c2nc1OC

>  <system>
Human KDR (residues 790-1356) (Homo sapiens (Human), UniProt P35968)

>  <pIC50>
< 6.52

$$$$
>  <mol>
CCOc1c(C)cn(-c2ccc(F)cc2)c(=O)c1C(=O)Nc1ccc(Oc2ccnc3cc(OC)c(OC)nc23)c(F)c1

>  <system>
Human KDR (residues 790-1356) (Homo sapiens (Human), UniProt P35968)

>  <pIC50>
> 7.00

$$$$
>  <mol>
COc1cnc2c(Oc3ccc(NC(=O)c4cnc(C)c(-c5ccc(F)cc5)c4O)cc3F)ccnc2c1

>  <system>
Human KDR (residues 790-1356) (Homo sapiens (Human), UniProt P35968)

>  <pIC50>
> 7.00

$$$$
>  <mol>
COc1ccc2nccc(Oc3ccc(NC(=O)c4ccc(C)n(-c5ccc(F)cc5C)c4=O)cc3)c2n1

>  <system>
Human KDR (residues 790-1356) (Homo sapiens (Human), UniProt P35968)

>  <pIC50>
< 6.52

$$$$
